The measurements presented in this section are drawn from ChEMBL document CHEMBL1148329.

ASSAY_DETAILS: Relative affinities for alpha-2a and alpha-1A receptors
Answer each item with its documented Selectivity.

Example results:
*Q* Read the entry CN(c1cccc2c1CCCC2c1c[nH]cn1)S(C)(=O)=O (stereo not drawn) and write its reported Selectivity.
*A* 0.4

*Q* Read the entry CC(N)C(O)c1ccccc1 (stereo not drawn) [PHENYLPROPANOLAMINE] and write its reported Selectivity.
*A* 0.03

*Q* Read the entry COc1ccc(OC)c(C(O)CN)c1 (stereo not drawn) [DESGLYMIDODRINE] and write its reported Selectivity.
*A* 0.7

# batch: return Selectivity for each of the 5 molecules below
1. O=S(=O)(CC(F)(F)F)Nc1cccc2c1CCCC2c1c[nH]cn1 (single isomer, unassigned; (+))
2. CCS(=O)(=O)Nc1ccc2c(c1)C(c1c[nH]cn1)CCC2 (stereo not drawn)
3. O=C(Nc1cccc2c1CCCC2c1c[nH]cn1)C(F)(F)F (stereo not drawn)
4. CCS(=O)(=O)Nc1cccc2c1CCCC2c1c[nH]cn1 (single isomer, unassigned; (+))
5. Oc1cccc2c1CCCC2c1c[nH]cn1 (stereo not drawn)

*A*
1. 8
2. 0.02
3. 2
4. 3
5. 0.2

###

Answer each item with its documented pKi.
SYSTEM_TESTED: Alpha-1D adrenergic receptor (Rattus norvegicus)
Sequence (P23944 whole entry): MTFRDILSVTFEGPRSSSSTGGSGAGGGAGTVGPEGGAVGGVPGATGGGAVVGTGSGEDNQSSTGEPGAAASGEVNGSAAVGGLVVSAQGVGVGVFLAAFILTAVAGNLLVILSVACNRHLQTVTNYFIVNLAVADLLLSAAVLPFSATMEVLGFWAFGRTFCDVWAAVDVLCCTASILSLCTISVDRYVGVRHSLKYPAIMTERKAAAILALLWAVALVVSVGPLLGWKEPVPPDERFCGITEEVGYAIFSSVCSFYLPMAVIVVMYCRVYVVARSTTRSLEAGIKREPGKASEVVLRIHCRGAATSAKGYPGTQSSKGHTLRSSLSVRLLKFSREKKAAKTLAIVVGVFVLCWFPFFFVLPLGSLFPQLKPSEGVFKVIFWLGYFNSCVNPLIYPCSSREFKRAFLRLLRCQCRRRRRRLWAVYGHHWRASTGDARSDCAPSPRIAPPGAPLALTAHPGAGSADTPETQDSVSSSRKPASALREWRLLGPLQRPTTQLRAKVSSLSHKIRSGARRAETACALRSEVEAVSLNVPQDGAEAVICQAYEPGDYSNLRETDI
Numbers only, as −log10 of the molar value.

Example results:
*Q* Read the entry `CCS(=O)(=O)Nc1cccc(Cc2c[nH]cn2)c1C` and write its reported pKi.
*A* 6.00

*Q* Read the entry CS(=O)(=O)Nc1c(O)ccc2c1CCCC2C1=NCCN1 (configuration not stated) and write its reported pKi.
*A* 5.83

*Q* Read the entry CS(=O)(=O)Nc1cccc2c1CCCC2C1=NCCN1 (configuration not stated) and write its reported pKi.
*A* 5.37

# batch: return pKi for each of the 5 compounds below
1. CC(N)C(O)c1ccccc1 (configuration not stated)
2. CCS(=O)(=O)Nc1cccc(C2CCNC2)c1 (configuration not stated)
3. CCS(=O)(=O)Nc1cc(F)cc2c1CCCC2c1c[nH]cn1 (configuration not stated)
4. CCS(=O)(=O)Nc1cccc(CC2CCCN2)c1 (configuration not stated)
5. COc1ccc(OC)c(C(O)CN)c1 (configuration not stated)

*A*
[5.07, 6.00, 5.44, 6.30, 5.78]
